# assay_procedure: Metabolic stability in rat plasma assessed as compound remaining measured upto 120 mins by LC/MS analysis
# Format: ADME, cell-free
# test_conditions: read-out: Stability
metric_name: remaining at 2 h (%)
Numbers only, in %.

Input line: Consider the molecule "CS(=O)(=O)Nc1ccc(/C(=C\n2cnc(-c3cc(C(F)(F)F)cc(C(F)(F)F)c3)n2)C(N)=O)cc1" and give its measured remaining at 2 h.
Output line: 80

---

# assay_procedure: Clearance in Sprague-Dawley rat at 1 mg/kg, iv measured upto 8 hrs by LC-MS/MS analysis
# Format: ADME, organism-based
# test_conditions: in vivo
metric_name: clearance
Hi, when you answer, please include the unit after the number. Thanks!

Input line: Consider the compound "CS(=O)(=O)Nc1ccc(/C(=C\n2cnc(-c3cc(C(F)(F)F)cc(C(F)(F)F)c3)n2)C(N)=O)cc1" and give its measured clearance.
Output line: 9.42 mL/min/kg

---

# assay_procedure: AUC (0 to t) in Sprague-Dawley rat at 10 mg/kg, IG measured upto 8 hrs by LC-MS/MS analysis
# Assay type: ADME, organism-based
# Parameters: time < 8 hrs, dose 10 mg/kg, route ig
# test_conditions: in vivo, po
metric_name: AUC(0-t) at 8 h
Hi, when you answer, please include the unit after the number. Thanks!

Input line: Consider the compound "CS(=O)(=O)Nc1ccc(/C(=C\n2cnc(-c3cc(C(F)(F)F)cc(C(F)(F)F)c3)n2)C(N)=O)cc1" and give its measured AUC(0-t) at 8 h.
Output line: 5770 ng·h/mL

---

# assay_procedure: Tmax in Sprague-Dawley rat at 10 mg/kg, IG measured upto 8 hrs by LC-MS/MS analysis
# Type: ADME, organism-based
# test_conditions: in vivo, po
metric_name: Tmax

Input line: Consider the compound "CS(=O)(=O)Nc1ccc(/C(=C\n2cnc(-c3cc(C(F)(F)F)cc(C(F)(F)F)c3)n2)C(N)=O)cc1" and give its measured Tmax.
Output line: 2.17 h

---

# assay_procedure: AUC (0 to t) in Sprague-Dawley rat at 1 mg/kg, iv measured upto 8 hrs by LC-MS/MS analysis
# Format: ADME, organism-based
# Parameters: time < 8 hrs, dose 1 mg/kg, route iv
# test_conditions: in vivo
metric_name: AUC(0-t) at 8 h (ng·h/mL)
One number for each entry, in ng·h/mL.

Input line: Consider the molecule "CS(=O)(=O)Nc1ccc(/C(=C\n2cnc(-c3cc(C(F)(F)F)cc(C(F)(F)F)c3)n2)C(N)=O)cc1" and give its measured AUC(0-t) at 8 h.
Output line: 1670

---

# Tested on: MM1.S
# assay_procedure: Antiproliferative activity against human MM1.S cells assessed as inhibition of cell growth incubated for 4 hrs by CCK-8 assay
# Assay type: functional, cell-based
IC50 under 800 nM gets t, anything at or over 800 nM gets f.

NC(=O)/C(=C/n1cnc(-c2cc(C(F)(F)F)cc(C(F)(F)F)c2)n1)c1cccnc1F :: t
CS(=O)(=O)Nc1cc(C#N)cc(/C(=C\n2cnc(-c3cc(C(F)(F)F)cc(C(F)(F)F)c3)n2)C(N)=O)c1 :: f
N#Cc1cn(/C=C(/C(N)=O)c2cncnc2)nc1-c1cc(C(F)(F)F)cc(C(F)(F)F)c1 :: f

Please examine the following record next.
Input line: For this compound, is IC50 lower than 800 nM? "CS(=O)(=O)Nc1ccc(/C(=C\n2cnc(-c3cc(C(F)(F)F)cc(C(F)(F)F)c3)n2)C(N)=O)cc1C(F)(F)F"
Output line: f
